Exercise: for every item that follows, state its recorded % Maximum blocking.
Target entity: T1, cynomolgus monkey IL-33 expressed with a C-terminal hexahistidine tag (cynomolgus monkey)
T1 construct: also called MfIL-33-6His; Mf-IL-33-6His
T1 chain: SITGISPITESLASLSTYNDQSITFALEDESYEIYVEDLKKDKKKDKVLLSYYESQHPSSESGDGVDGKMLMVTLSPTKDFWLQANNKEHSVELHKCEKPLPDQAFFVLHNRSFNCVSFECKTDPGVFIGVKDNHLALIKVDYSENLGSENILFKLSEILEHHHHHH
Test: competition ELISA, 150 pM MfIL-33-6His on coated hST2-hFc
Response body: numeric value in %, unit text excluded.

Query: Sample H4H9671P (antibody, human IgG4, V domains shown, Human IgG4 Fc (H4H)) VH: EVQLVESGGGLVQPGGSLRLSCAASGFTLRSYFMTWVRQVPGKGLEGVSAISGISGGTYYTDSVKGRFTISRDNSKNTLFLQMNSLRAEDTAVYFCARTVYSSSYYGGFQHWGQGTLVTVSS VL: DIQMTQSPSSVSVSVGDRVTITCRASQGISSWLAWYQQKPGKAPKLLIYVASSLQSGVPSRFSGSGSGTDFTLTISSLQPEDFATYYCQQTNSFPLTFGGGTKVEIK — what was its % Maximum blocking?
Reply: 62

Query: Sample H4H9640P (antibody, human IgG4, V domains shown, Human IgG4 Fc (H4H)) VH: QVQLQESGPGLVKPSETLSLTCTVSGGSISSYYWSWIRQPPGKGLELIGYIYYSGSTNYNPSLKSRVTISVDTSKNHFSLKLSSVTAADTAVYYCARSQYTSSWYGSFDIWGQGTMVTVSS VL: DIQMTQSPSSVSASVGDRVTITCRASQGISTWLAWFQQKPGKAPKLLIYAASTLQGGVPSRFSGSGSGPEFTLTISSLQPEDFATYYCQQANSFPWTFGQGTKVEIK — what was its % Maximum blocking?
Reply: 73
